System: Acinetobacter baumannii
Test: Antibacterial activity against multidrug-resistant Acinetobacter baumannii BM4675 by antimicrobial susceptibility assay
Type: functional
attribute measured: MIC

CC1(C)S[C@@H]2[C@H](NC(=O)[C@H](C(=O)O)c3ccsc3)C(=O)N2[C@H]1C(=O)O [TICARCILLIN]	> 256 µg/mL

Memo: CC(C)(O/N=C(\C(=O)N[C@@H]1C(=O)N2C(C(=O)[O-])=C(C[n+]3ccccc3)CS[C@H]12)c1csc(N)n1)C(=O)O [CEFTAZIDIME] , reported MIC: > 256 µg/mL

Memo: CO/N=C(\C(=O)N[C@@H]1C(=O)N2C(C(=O)O)=C(COC(C)=O)CS[C@H]12)c1csc(N)n1 [CEFOTAXIME] , reported MIC: > 256 µg/mL

Memo: CCn1cc(C(=O)O)c(=O)c2cc(F)c(N3CCNCC3)cc21 [NORFLOXACIN] , reported MIC: > 256 µg/mL

Memo: O=C(N[C@H](CO)[C@H](O)c1ccc([N+](=O)[O-])cc1)C(Cl)Cl [CHLORAMPHENICOL] , reported MIC: > 256 µg/mL

Memo: CO[C@H]1/C=C/O[C@@]2(C)Oc3c(C)c(O)c4c(O)c(c(/C=N/N5CCN(C)CC5)c(O)c4c3C2=O)NC(=O)/C(C)=C\C=C\[C@H](C)[C@H](O)[C@@H](C)[C@@H](O)[C@@H](C)[C@H](OC(C)=O)[C@@H]1C [RIFAMPIN] , reported MIC: > 32 µg/mL

Memo: O=C(O)c1cn(C2CC2)c2cc(N3CCNCC3)c(F)cc2c1=O [CIPROFLOXACIN] , reported MIC: > 32 µg/mL

====

Test system: Acinetobacter baumannii
Test: Antibacterial activity against Acinetobacter baumannii CIP70-10 by antimicrobial susceptibility assay
Format: functional
attribute measured: MIC (mg/L)
Express your answer in mg/L, writing the number without its unit.

CN(C)[C@@H]1C(O)=C(C(N)=O)C(=O)[C@@]2(O)C(O)=C3C(=O)c4c(O)cccc4[C@@](C)(O)[C@H]3C[C@@H]12	1
CO/N=C(\C(=O)N[C@@H]1C(=O)N2C(C(=O)O)=C(COC(C)=O)CS[C@H]12)c1csc(N)n1	12
O=C(N[C@H](CO)[C@H](O)c1ccc([N+](=O)[O-])cc1)C(Cl)Cl	48
CO/N=C(\C(=O)N[C@@H]1C(=O)N2C(C(=O)[O-])=C(C[N+]3(C)CCCC3)CS[C@H]12)c1csc(N)n1 [CEFEPIME]	1.5

So the reported MIC for `CCn1cc(C(=O)O)c(=O)c2cc(F)c(N3CCNCC3)cc21` , on Acinetobacter baumannii, turned out to be 2
